- experimentalDetails: Parallel artificial membrane permeability assay, gastrointestinal (PAMPA-GI / PAMPA-GTI)
- measurementSetup: PAMPA

>  <compound>
Cc1c(NC(=O)C(C)c2ccc(CC(C)C)cc2)c(=O)n(-c2ccccc2)n1C (centres unmarked)

>  <Papp at 8 h, 0.5 mM / ×10⁻⁶ cm/s>
15.4

$$$$
>  <compound>
Cc1c(N(C)C(=O)C(C)c2ccc(-c3ccccc3)c(F)c2)c(=O)n(-c2ccccc2)n1C (centres unmarked)

>  <Papp at 8 h, 0.5 mM / ×10⁻⁶ cm/s>
10.2

$$$$
>  <compound>
Cc1c(N(C)C(=O)C(C)c2ccc(CC(C)C)cc2)c(=O)n(-c2ccccc2)n1C (centres unmarked)

>  <Papp at 8 h, 0.5 mM / ×10⁻⁶ cm/s>
2.51

$$$$
>  <compound>
Cc1c(NC(=O)C(C)c2ccc(-c3ccccc3)c(F)c2)c(=O)n(-c2ccccc2)n1C (centres unmarked)

>  <Papp at 8 h, 0.5 mM / ×10⁻⁶ cm/s>
9.69

$$$$
>  <compound>
Cc1c(NC(=O)Cc2ccc(-c3ccccc3)cc2)c(=O)n(-c2ccccc2)n1C

>  <Papp at 8 h, 0.5 mM / ×10⁻⁶ cm/s>
11

$$$$

* * *

# Pe Exp per entry
- experimentalDetails: Parallel artificial membrane permeability assay, gastrointestinal (PAMPA-GI / PAMPA-GTI)
- measurementSetup: Table S1, PAMPA-GTI
readout: Pe Exp

>  <compound>
C[C@]12C=CC(=O)C=C1CC[C@@H]1[C@@H]2C(=O)C[C@@]2(C)[C@H]1CC[C@]2(O)C(=O)CO [Prednisone, reference compound]

>  <readout>
Pe Exp

>  <result>
3,09 10-6 cm/s

$$$$
>  <compound>
CC(=O)Oc1ccccc1C(=O)O [acetylsalicylic acid, reference compound]

>  <readout>
Pe Exp

>  <result>
1,69 10-6 cm/s

$$$$
>  <compound>
Cc1c(N(C)C(=O)C(C)c2ccc(-c3ccccc3)c(F)c2)c(=O)n(-c2ccccc2)n1C (centres unmarked) [Compound 11]

>  <readout>
Pe Exp

>  <result>
10,18 10-6 cm/s

$$$$
>  <compound>
Cc1c(N(C)C(=O)C(C)c2ccc(CC(C)C)cc2)c(=O)n(-c2ccccc2)n1C (centres unmarked) [Compound 10]

>  <readout>
Pe Exp

>  <result>
9,15 10-6 cm/s

$$$$
>  <compound>
CC(=O)N1CCN(c2ccc(OCC3COC(Cn4ccnc4)(c4ccc(Cl)cc4Cl)O3)cc2)CC1 (centres unmarked) [Ketoconazole, reference compound]

>  <readout>
Pe Exp

>  <result>
4,93 10-6 cm/s

$$$$
>  <compound>
CNC(=C[N+](=O)[O-])NCCSCc1ccc(CN(C)C)o1 [Ranitidine, reference compound]

>  <readout>
Pe Exp

>  <result>
0,38 10-6 cm/s

$$$$
>  <compound>
Cc1c(NC(=O)Cc2ccc(-c3ccccc3)cc2)c(=O)n(-c2ccccc2)n1C [Compound 9]

>  <readout>
Pe Exp

>  <result>
11,00 10-6 cm/s

$$$$
>  <compound>
Nc1nc2c(ncn2COCCO)c(=O)[nH]1 [Acyclovir, reference compound]

>  <readout>
Pe Exp

>  <result>
0,08 10-6 cm/s

$$$$

* * *

- experimentalDetails: Parallel artificial membrane permeability assay, gastrointestinal (PAMPA-GI / PAMPA-GTI)
- measurementSetup: Table S1, PAMPA-GTI, absorbed fraction
readout: Fa

>  <compound>
CNC(=C[N+](=O)[O-])NCCSCc1ccc(CN(C)C)o1 [Ranitidine, reference compound]

>  <readout>
Fa

>  <result>
13,48%

$$$$
>  <compound>
Cc1c(N(C)C(=O)C(C)c2ccc(CC(C)C)cc2)c(=O)n(-c2ccccc2)n1C (stereo not drawn)

>  <readout>
Fa

>  <result>
96,91%

$$$$
>  <compound>
Cc1c(N(C)C(=O)C(C)c2ccc(-c3ccccc3)c(F)c2)c(=O)n(-c2ccccc2)n1C (stereo not drawn)

>  <readout>
Fa

>  <result>
97,91%

$$$$
>  <compound>
O=c1ccc2ccccc2o1 [Coumarin, reference compound]

>  <readout>
Fa

>  <result>
99,98%

$$$$
>  <compound>
CC(=O)N1CCN(c2ccc(OCC3COC(Cn4ccnc4)(c4ccc(Cl)cc4Cl)O3)cc2)CC1 (stereo not drawn) [Ketoconazole, reference compound]

>  <readout>
Fa

>  <result>
84,68%

$$$$
>  <compound>
Cc1c(NC(=O)C(C)c2ccc(CC(C)C)cc2)c(=O)n(-c2ccccc2)n1C (stereo not drawn)

>  <readout>
Fa

>  <result>
99,71%

$$$$
>  <compound>
Cc1c(NC(=O)Cc2ccc(-c3ccccc3)cc2)c(=O)n(-c2ccccc2)n1C

>  <readout>
Fa

>  <result>
98,47%

$$$$
>  <compound>
CC(=O)Oc1ccccc1C(=O)O [acetylsalicylic acid, reference compound]

>  <readout>
Fa

>  <result>
47,36%

$$$$
>  <compound>
Cc1c(NC(=O)C(C)c2ccc(-c3ccccc3)c(F)c2)c(=O)n(-c2ccccc2)n1C (stereo not drawn)

>  <readout>
Fa

>  <result>
97,49%

$$$$

* * *

# logD per entry
- experimentalDetails: Distribution coefficient at pH 7.4 (shake-flask, octanol/phosphate buffer)
- Type: physicochemical
- measurementSetup: 1-octanol/buffer pH 7.4; n-octanol/buffer partitioning at pH 7.4, UV method; read-out: Log D7.4

>  <molecule>
Cc1c(NC(=O)C(C)c2ccc(-c3ccccc3)c(F)c2)c(=O)n(-c2ccccc2)n1C (centres unmarked) [Compound 8]

>  <logD>
1.94

$$$$
>  <molecule>
Cc1c(NC(=O)Cc2ccc(-c3ccccc3)cc2)c(=O)n(-c2ccccc2)n1C [Compound 9]

>  <logD>
2.14

$$$$
>  <molecule>
Cc1c(N(C)C(=O)C(C)c2ccc(-c3ccccc3)c(F)c2)c(=O)n(-c2ccccc2)n1C (centres unmarked) [Compound 11]

>  <logD>
1.98

$$$$
>  <molecule>
Cc1c(N(C)C(=O)C(C)c2ccc(CC(C)C)cc2)c(=O)n(-c2ccccc2)n1C (centres unmarked) [Compound 10]

>  <logD>
2.43

$$$$
>  <molecule>
Cc1c(NC(=O)C(C)c2ccc(CC(C)C)cc2)c(=O)n(-c2ccccc2)n1C (centres unmarked) [Compound 7]

>  <logD>
2.47

$$$$

* * *

- testedOn: human CB2 (Homo sapiens)
- Sequence (P34972 whole entry): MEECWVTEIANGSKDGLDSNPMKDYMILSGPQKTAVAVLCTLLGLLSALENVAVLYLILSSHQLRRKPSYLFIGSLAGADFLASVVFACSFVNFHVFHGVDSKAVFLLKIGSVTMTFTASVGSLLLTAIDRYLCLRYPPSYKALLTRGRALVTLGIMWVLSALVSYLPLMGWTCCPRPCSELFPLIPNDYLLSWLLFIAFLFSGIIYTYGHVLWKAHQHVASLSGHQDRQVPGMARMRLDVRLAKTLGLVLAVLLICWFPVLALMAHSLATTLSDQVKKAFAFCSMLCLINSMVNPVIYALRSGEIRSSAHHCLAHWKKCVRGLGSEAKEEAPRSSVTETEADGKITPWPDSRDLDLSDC
- experimentalDetails: Human CB2 (agonist radioligand) receptor binding assay, [3H]-WIN 55212-2
- Design: host or cells: cAMP Hunter CHO-K1 CNR2 Gi
- measurementSetup: membranes from CB2-expressing CHO cells, [3H]-WIN55212-2 radioligand, duplicate

>  <compound>
Cc1c(N(C)C(=O)C(C)c2ccc(-c3ccccc3)c(F)c2)c(=O)n(-c2ccccc2)n1C (stereo not shown)

>  <testedOn>
human CB2 (Homo sapiens)

>  <Ki [µM]>
16

$$$$

* * *

- testedOn: UniProt:P34972
- experimentalDetails: Inverse agonist activity, cAMP Hunter CHO-K1 CNR2 Gi cells (HitHunter cAMP XS+)
- measurementSetup: inverse agonism, cAMP increase, 8 μM (EC20) forskolin
readout: EC50

>  <compound>
Cc1c(N(C)C(=O)C(C)c2ccc(-c3ccccc3)c(F)c2)c(=O)n(-c2ccccc2)n1C (stereo not shown) [Compound 11]

>  <readout>
EC50

>  <result>
369 nM

$$$$

* * *

- experimentalDetails: Aqueous solubility (thermodynamic, UV spectroscopy)
- Format: physicochemical
- measurementSetup: aqueous buffer, thermodynamic from solid, phosphate buffer pH 7.4, 37 °C
Outcome: condition met for solubility at 4 h of at least 20 µM; condition not met for anything lower.

>  <compound>
Cc1c(N(C)C(=O)C(C)c2ccc(-c3ccccc3)c(F)c2)c(=O)n(-c2ccccc2)n1C (centres unmarked)

>  <answerLabel>
condition met

$$$$
>  <compound>
Cc1c(NC(=O)C(C)c2ccc(-c3ccccc3)c(F)c2)c(=O)n(-c2ccccc2)n1C (centres unmarked)

>  <answerLabel>
condition met

$$$$
>  <compound>
Cc1c(N(C)C(=O)C(C)c2ccc(CC(C)C)cc2)c(=O)n(-c2ccccc2)n1C (centres unmarked)

>  <answerLabel>
condition met

$$$$
>  <compound>
Cc1c(NC(=O)C(C)c2ccc(CC(C)C)cc2)c(=O)n(-c2ccccc2)n1C (centres unmarked)

>  <answerLabel>
condition not met

$$$$
>  <compound>
Cc1c(NC(=O)Cc2ccc(-c3ccccc3)cc2)c(=O)n(-c2ccccc2)n1C

>  <answerLabel>
condition met

$$$$

* * *

- experimentalDetails: Parallel artificial membrane permeability assay, blood-brain barrier (PAMPA-BBB)
- measurementSetup: Table S2, PAMPA-BBB
readout: Classification

>  <compound>
Cc1c(NC(=O)C(C)c2ccc(CC(C)C)cc2)c(=O)n(-c2ccccc2)n1C (stereo not drawn)

>  <result>
CNS +

$$$$
>  <compound>
Cc1c(N(C)C(=O)C(C)c2ccc(-c3ccccc3)c(F)c2)c(=O)n(-c2ccccc2)n1C (stereo not drawn)

>  <result>
CNS +

$$$$
>  <compound>
CN1C(=O)CN=C(c2ccccc2)c2cc(Cl)ccc21 [Diazepam, reference compound]

>  <result>
CNS +

$$$$
>  <compound>
Cn1c(=O)c2c(ncn2C)n(C)c1=O [Caffeine, reference compound]

>  <result>
CNS -

$$$$
>  <compound>
CCn1cc(C(=O)O)c(=O)c2cc(F)c(N3CCNCC3)nc21 [Enoxacin, reference compound]

>  <result>
CNS -

$$$$
>  <compound>
CC(C)NCC(O)COc1ccc(CC(N)=O)cc1 (stereo not drawn) [Atenolol, reference compound]

>  <result>
CNS -

$$$$
>  <compound>
Cc1c(N(C)C(=O)C(C)c2ccc(CC(C)C)cc2)c(=O)n(-c2ccccc2)n1C (stereo not drawn)

>  <result>
CNS +

$$$$
>  <compound>
Cc1c(NC(=O)C(C)c2ccc(-c3ccccc3)c(F)c2)c(=O)n(-c2ccccc2)n1C (stereo not drawn)

>  <result>
CNS +

$$$$
>  <compound>
Cc1c(NC(=O)Cc2ccc(-c3ccccc3)cc2)c(=O)n(-c2ccccc2)n1C

>  <result>
CNS +

$$$$
